Experiment: yeast display, Sf9 membrane polyspecificity reagent, FACS + sequencing; frameworks hold sequencing errors
PROPERTY MEASURED: polyreactivity (PSR sort gate)

QVQLVESGGGLVQAGGSHRLSCAASGRLFSWNAMGWYRQAPGTERELVAAITNGGGTYYADSVKGRFTISRDNAKNTVYLQMNSLKPEDTAVYYCNAYRRKLWYPTGLYWGQGTQVTVSS
high polyreactivity
QVQLVESGGGLVQAGGSLRLSCAASGSIFGGYTMGWSRQAPGKERELVAGITISGGSTYYADSVKGRFTISRDNAKNTVYLQMNSLKPEDTAVYYCAAVSFVVSSWGYGYWGQGTQVTVSS
low polyreactivity
QLQLVESGGGLVQAGGSLRLSCAASVFTFYVNAMGWYRQAPGKERELVAAISSSGTRTYYADSVKGRFTISRDNAKNTVYLKMNSMKPEDTAVYYCAARAYQHYKWGQGTQVTVSS
high polyreactivity
QVQLVESGGGLVQAGGSLRLICAASGSTFSAYVMGWYRQAPGKERKLVAAITRSGVSTYYADSVKGRFTISRDNAKNTVYLQMNSLKPEDTAVYYCARRAKGAYWNEYNYWGQGTQVTVSS
high polyreactivity
QVQLVESGGGLVQAGGSLRLICAASGRTLWWYAMGWYRQAPGKESELVAAIDYSDGNTYYADSVKGRFTISRDYAKNTVYLQMNSLKPEDTAVYFCAAEGYYNYGSYYWGQGTQVTVSS
high polyreactivity
QVQLVETGGGLVQAGGSLRISCAPSGSTFAGYAMGWYRQAPGKERELVAAISYSGGTTYYADSVKGRFTISRDNAKNTVYLQMNSLKPEDTAVYYCAARKKYKTPSNDMYYWGQGTQVTVSS
high polyreactivity
QVQLVESGGGLVQAGGSLRLSCAASGRIFGSYAMGWYRQAPGKERELVATITFGGGSTYYAESEKGRFTISRDNAKNTVYLQMNSLKPEDTAVYYCAADSGYLGIYGDEYSWGQGTQVTVSS
low polyreactivity
QVQLVESGGGLVQAGGSLRLSCAASGSTFGSYAMGWYRQAPGKERELVAAISGGGSTYYADSVKGRFTISRDNAKNTVYLQMNSLKPEDTAVYYCNAYWKYWRTNGPGTKYNYWGQGTQVTVSS
high polyreactivity
QVQLVESGGGLVQAGGSLRLSCAASGFTFRWYAMGWYRQAPGKERELVARISWDGGSTYYADSVKGRFTISRDNAKNTVYLQMNSLKPEDTAVYDCAKDWYYLRRNYDYWGQGTQVTVSS
high polyreactivity
QVQLVESGGGLVQAGGSLRLSCAASGFIFTQYAMGWYRQAPGKERELVAAITRSGGRTYYADSVKGRFTISRDNAKNTVYLQMNSLIPEDTAVYYCAVDTVTRTVLVYGDRNDSWGQGTQVTVSS
high polyreactivity
QVQLQESGGGLVQAGGSLRLTCAASGSISAVAAMGWYRQAPGKEREFAASVNWGTNTNYADSLKGRFTISRDNAINTLYLQMNSLNPEDTAVYYCGVLPDWETRHDYWGHGTQVTVSS
low polyreactivity

---

Experiment: yeast display, Sf9 membrane polyspecificity reagent, FACS + sequencing; frameworks hold sequencing errors
PROPERTY MEASURED: polyreactivity (PSR sort gate)

QVQLVESGGGLVQAGGSLRLSCAASGSTFVRNARGWYRQAPGKERELVAAISRSGGRTYYADSVKGRFTISRDNAKNTVYLQMNSLKPEDTAVYYCAADGKSGYDYWGQGTQVTVSS
high polyreactivity
QVQLVESGGGLVQAGGSLRLSCAASGRIVNYYAMGWYRQAPGKERELVAAINSGGSTDYADSVKGRFTISRDNAKNTVYLQMNSLKPEDTAVYYCNAEKTYLYTDIPGYARFGYWGQGTQVTVSS
high polyreactivity
QVQLVESGGGLVQAGGSLRLSCAASGFTFYYNAMGWYRQAQGKERELVAAMSRSGGRTYYADSVKGRFTISRDNAKNTVYLQMNSLKPEDTAVYYCNRRTRPDGGESDYWGQGTLVTVSS
high polyreactivity
QVQLVESGGGLVQAGGSLRLSCAASGSTFTGYALGWYRQAPGKERELVAAISSGGSTYYADSVKGRFTISRDNAKNTVYLQMNSLKPEDTAVYYCAAAPRWKASRLYYWGQGTQVTVSS
high polyreactivity
QDHLVESGGGLVQAGGSLRLSCAASGSTFGWYAMGWYRHAPGKERELVAVITRGGSTYYADSVKGHFTITLDNAKNTVYLQMNSLKPEDTAVYFCAARYRLPPYYYWGHGTQVTVSS
high polyreactivity
QVQLVESGGGLVQAGGSLRLSCAASGRIYWNTMGWYRPAPGKERELVASISTGGGRTYYADSVKGRFTISRDNAKNTVYLQMNSLKPEDTAVYYCAARRGAGYSRFNYWGQGTQVTVSS
high polyreactivity
QVQLVESGGGLVQAGGSLRLSCAASGRISAYNAMGWYRQAPGKERELVAGISTRTGSTYYADSVKGRFTISRDNAKNTVYLQMNSLKPEDTAVYYGAAYFWGVYFFGMDYWGQGTQVTVSS
low polyreactivity
QVQLVESGGGLVQAGGSLRLSCAASGIFAYYAMGWYRQAPGKERELVAAISSSGGSTYYADSVKGRFTISRDNAKNTFYLQMNSLKPEDTAVYYCNVRNYYNDYYYWGQGTQVTVSS
high polyreactivity
QVQLVESGGVLVQAGGSLRLSCAASGSIFYVNTMGWYRQAPGKDRELVADISSGDSTYYADSVKGRFTISRDNAKNTVYLQMNSLKPEDTAVFYCNADVYSWVSGKEGDYWGQGTQVTVSS
low polyreactivity
QVQLVESGGGLVQAGGSLRLTCAASGSTFQVNDMGWYRQAPGKDRELLASISGGSSTNYADSVKGRFTISRDNAKNTVYLQMHSLQPEDTAVYYCAAYYLSGLRVAYDYWGQGPQVTVSS
low polyreactivity
QVQLVESGGGLVQAGGSLRLSCAASGSTFPGNAMGWYRQAPGKERELVASISGGGDSTYYADSVKGRFTISRDNAKNTVYLQMNSLKPEDTAVYYCAADYRQEPGYTGYYYWGQGTQLTVSS
low polyreactivity

---

Test: yeast display, Sf9 membrane polyspecificity reagent, FACS + sequencing; frameworks hold sequencing errors
PROPERTY MEASURED: polyreactivity (PSR sort gate)

QVQLVESGGGLVQAGGSLRLSCAASGRTFCSNAMGWYRPAPGKERELVAAISNGDNTYYADSVKGRFTISRDNAKNTVYLQMNSLKPEDTAVYYCNADYTVYDTEYDYWGQGTQVTVSS
low polyreactivity
QVQLVESGGGLVQAGGSLRLSCAASGSILYFNAMGWYRQAPGKERELVAAISRTGSRTYYADSVKGRFTISRDNAKNTVYLQMNSLKPEDTAVFYCAAYNGITSHLRFDYWGQGTQVTVSS
high polyreactivity
QVQLVESGGGLVQAGGSLRLSCAASGITFISYAMGWYRQAPGKEMELVAAISSSGGRTYYADSVKGRFTISRDNAKNTVYLQMNSLKPEDTAVYYCAADGYPEYPRYGYWGQGTQVTVSS
high polyreactivity
QVQVVESGGGLVQAGGRLRLSCAASGRIFYWYAMGWSRQAPGKERELVADINHGDTSTYYADSVKGRFTISRDKAKNTVYLQMNSLKPEDTAVYYCNVRSYVYSRWYQSTWGYYYWGQGTQVTVSS
high polyreactivity
QVQLVESGGGLVQAGGSLRLSSAASGSTFYYNSMGWYRQAPGKETELVAGITRGGSTNYADSVKGRFTISRDNAKNTVYLQMNSLKPEDSAVYYCAKRTYFRGSSGYYYWGQGTQVTVSS
high polyreactivity
QVHLVESGGGLVQAGGSLRLSCAASGSTFDHYAMAWYRQAPGKERELVASITLSGGSTYYADSVKGRFTISRDNAKNTVYLQMNSLKPEDTAVYYCAAVVVYPYRLGYDYWGQGTQVTVSS
low polyreactivity
QVQLVESGGGLVQAGGSLRLSCAASGRTIPWNVMGWYRQAPGKERELVATITSRRTSTNYADSVKARFTISRDNAKNTVYLPMNSLKPEDTAVYYCARRTVWGAGHYYYWGQGTQVTVSS
high polyreactivity
QVQLVESGGGLVQAGGSLRLSCAASGSIFRYYAMGWYRQAPGKERELVARISWRAGSTYADSVKGRFTISRDNAKNTVYLQMNSLKPEDTAVYYCNADAHKYSWVGTSEYEYWGQGTQVTVSS
high polyreactivity
QVQLVESGGGLVKAGGSLRLSCAASGITFSYYTMGWYRQAPGKEREFVATISQSSGSTYYADSVKGRFTISRDNAKNTVYLQMNSLKPEDTAVYYCNARRDYEWESWNVDDDYWGQGTQVTVSS
high polyreactivity
QVQLVESGGGLVQAGGSLRLSCAASGFTFYYNAMGWYRQAPGKERELVASITRSGGRTYYADSVKGRFTISRDNAMNTVYLKMNSLKPEDTAVYYCARRYPRGYYWGQGTQVTVSS
high polyreactivity
QVQLVESGGGLVQAGGSLRLSCAASGSIFYGNAMGWYRPAPGKERELVAGITSGVGTNYADSVKGRFTISRDNAKNTVYLQMNSLKPEDTAVYYCAARVYRYRHYDYWGQGTQVTVSS
high polyreactivity
QVQLVESGGGLVQAGGSLRLSCAASGRTFPGYAMGWYRQAAGTERELVAGISYRGGSTYYADSVKGRFTISRDNAKNTVYLQMNSLKPEDTAVYYCARDYSRHKGDYWGQGTQVTVSS
low polyreactivity
QVQLVESGGGLVQAGGSLRLSCAASGSIFRGYTMGGYRQAPGKETELVAAISRSGGSTYYADSVKGRFTISRDNAKNTVYLQMNSLKPEDTAVYYCAADSFRTRAIYDYWGQGTQVTVSS
high polyreactivity
QVQLVESGGGLDQAGGSLRLSCAASGSTFQAYARGWYRQAPGKERELVAAISRRSGSTYYADSVKGRFTISRDNAKNTVYLQMNSLKPEDTAVYYCNAGSRRPYDYWGQGTQVTVSS
low polyreactivity
QVQLVESGGGLVQAGGSLRLSCAASGFTFYRYDMGWYRQAPGKERELVAAITNNGGNTYYADSVKGRFTISRDNAKNTVYLQMNSLKPEDTAVYYCATKRYYWRGYWGQGTQVTVSS
high polyreactivity
QVQLVESGGGLVQAGGSLRLSCAASGSIFRIYAMGWYRQAPGKEREFVAAISSRGGRTYYADSVKGRFTISRDNAKNTVYLQMNSLKPEDTAVYYCNARATRGSYYEYEYWGQGTQVTVSS
high polyreactivity
QVQLVESGGGLVQAGGSLRLICAASGSTFKYNAMGWYRQAPGKERELVAAISSGGSTNYADSVKGRFTISRDNAKNTVYLQMHSLKPEDTAVYYCNAAYNYVTPWYFYWGQGTQVTVSS
high polyreactivity
QVQLVESGGGLVQAGGSLRLSSAASGSTFFTNALGWYRPAPGKERELGAVITKRGGSTYYADSVKGRFTISRDNAKNPVYLQMNSLKPEDTAVYYCAARIPKQQGYGYWGQGTQVTVSS
high polyreactivity
QVQLVESGGGLVQAGGSLSLSCAASGNNLYGNAMGWYRPAPGKERELVAGITSGGSTNYADSVKGRFTISRDNAKNTVYLQMNSLKREDTAVYYCNATSSGSIFGYDYWGQGTQVTVSS
low polyreactivity
QVQLVESGGGLVQAGGSLRLSCAASGFIFGGYAMGWYRQAPGKEREFVAAIRQRGGSTYYADSVKGRFTISRDNAKNTVYLQMNSLKPEDTAVYFCAATVRAVQASVRYGYWGQGTQVTVSS
high polyreactivity
QVQLQESGGVQAGGSLRLSSAATGYIARSDDMGWYRQAPGKERELVATINNGTITYYADSVKGRFTISRDNAKNTVYLQMNSLKPEDTAVHYCAVVQSDTDSLYYWGQGTQVSVSS
low polyreactivity

Hey, just so you know, these numbers are from the nanobody polyreactivity screen of Harvey et al. (2022).
